Protocol details: Pharmacokinetic (PK) experiments after intragastric administration in rats
Assay type: in vivo, SD rats
Condition label: male, SD, rat, plasma, po, intragastric administration 20 mg/kg
Description: Male SD rats, weighing 250-300 grams, were fasted overnight before testing. The test compound was dissolved in 30% sulfobutyl-R-cyclodextrin (SBE-β-CD) and administered intragastrically at a dose of 20 mg/kg. Blood was collected 15 minutes, 30 minutes, and 1, 2, 3, 4, […] and 24 hours after the administration. […]
Note to self: values exactly at 3000 ng·h/mL are Met. So AUC(0-inf) at or above 3000 ng·h/mL is Met, below is Not met.

In: hey, is AUC(0-inf) for this one >= 3000 ng·h/mL? `CSc1ccc2c(C)c(C(=O)/C=C/c3cc(C)c(OC(C)(C)C(=O)O)c(C)c3)oc2c1`
Out: Met

Origin of measurements: patent US11306102B2
